Target: T1, Bre1-LR E378K/E500K (budding yeast, UniProt Q07457 227-700, E378K | E500K)
T1 construct: source: E. coli BL21 Rosetta (DE3), purified (Ni-NTA, heparin, gel filtration)
T1 sequence (looked up): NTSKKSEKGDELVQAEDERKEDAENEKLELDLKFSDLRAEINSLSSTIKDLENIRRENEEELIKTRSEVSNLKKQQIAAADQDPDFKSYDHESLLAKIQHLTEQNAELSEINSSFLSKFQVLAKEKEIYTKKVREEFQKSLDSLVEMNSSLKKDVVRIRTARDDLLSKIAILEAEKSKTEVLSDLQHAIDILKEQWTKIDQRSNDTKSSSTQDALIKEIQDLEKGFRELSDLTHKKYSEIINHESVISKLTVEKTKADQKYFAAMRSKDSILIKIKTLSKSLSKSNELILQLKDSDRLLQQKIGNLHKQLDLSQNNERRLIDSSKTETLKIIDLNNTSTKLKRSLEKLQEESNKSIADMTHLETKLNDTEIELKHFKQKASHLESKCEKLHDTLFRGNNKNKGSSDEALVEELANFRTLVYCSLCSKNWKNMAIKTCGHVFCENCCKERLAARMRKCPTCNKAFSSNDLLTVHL
Assay: SPR; Lge1-CT immobilised on a CM5 chip, Bre1-LR flown over; Biacore 8K, 25°C, 20 mM HEPES (pH 7.5), 200 mM sodium chloride, 0.02% Tween 20
Conditions: both partners purified
quantity: Kd (nM)
Write the number in nM without appending the unit.

Record Lge1-CT (Lge1 residues 261–332), intein-chitin binding domain (CBD) tag construct (domain or fragment, budding yeast, UniProt Q02796 261-332, looked up, Lge1, budding yeast, residues 261-332; residues 268–331 resolved in the electron density; the intein-CBD tag is named on the protein in the pull-down; also called intein-CBD-fused Lge1-CT; intein-CBD-tagged Lge1-CT; source: E. coli BL21 Rosetta (DE3): cleared cell extract on chitin resin (pull-down); purified (chitin, heparin, gel filtration) for ITC and SPR; co-purified with Bre1-LR for the …) KNVKKTNNTESECEKAREVFKESDSIDSALEELNLKINSNELELRLLNNQCDKHALNIQLTQEKLDSLLLMQ , field Kd: 29
